Origin of measurements: PubChem BioAssay AID1159580

experiment.summary: chemical genetic growth profiling, strain panel (AID 1159580);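 also: tested at 20 µM; growth read once vehicle control cultures reached saturation at 30 °C; 1 = growth at the plate median or of vehicle wells; lower values mean less growth of the strain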
condition.context: S. cerevisiae deletion strains, growth OD, locus YKL085W, strain MDH1 (second series)
Among all 5,500 compounds or so, about 2,000 (36%) were called active. Another 18% or so got no clear call; they are omitted. Rule as the data show it: active = normalized growth mostly below about 0.91 (no sharp cut-off); inconclusive = no clear call, values can overlap the other calls; inactive = mostly above about 0.92. Some of the results follow.
Respond using exactly one of the listed classes: active, inactive

{"compound": "NCC(=O)CCC(=O)O", "class": "inactive"}
{"compound": "CC(=O)Nc1cccc(O)c1", "class": "inactive"}
{"compound": "CN1CCN2c3ccccc3Cc3ccccc3C2C1 (stereo unspecified)", "class": "inactive"}
{"compound": "CC(C)(Oc1ccc(Cl)cc1)C(=O)O", "class": "inactive"}
{"compound": "CC(C)[C@]12O[C@H]1[C@@H]1O[C@@]13[C@@]1(C)CCC4=C(COC4=O)[C@@H]1C[C@@H]1O[C@@]13C2=O", "class": "inactive"}
{"compound": "Cc1cc(=O)c2c(O)c3c(cc2o1)OC(C)(C)CC3", "class": "inactive"}
{"compound": "Nc1ccc(C(=O)O)c(O)c1 (tested in a mixture with another compound)", "class": "inactive"}
{"compound": "Cc1cc(=O)c2c(o1)-c1c(cc(O)c(O)c1C(=O)O)OC2", "class": "inactive"}

*Q* Could you check what this test reported for CC(C)c1ccc2c(c1O)CC[C@H]1C3=C(CC[C@]21C)C(=O)OC3 ?
*A* active

*Q* Could you check what this test reported for CC1(C)O[C@@H]2CC3C4C[C@H](F)C5=CC(=O)C=CC5(C)C4C(O)CC3(C)[C@]2(C(=O)CO)O1 (stereo partly specified) ?
*A* inactive

*Q* Could you check what this test reported for CCCN1C[C@H](CSC)C[C@@H]2c3cccc4[nH]cc(c34)C[C@H]21 ?
*A* inactive

----------
# maps each entry to its normalized growth
experiment.summary: chemical genetic growth profiling, strain panel (AID 1159580)
condition.context: S. cerevisiae deletion strains, growth OD, locus YNL233W, strain BNI4, active compounds read low
The whole screen tested about 5,500 compounds, of which about 2,000 (36%) were called active. Another 18% or so got no clear call; they are omitted. Some of the results follow.
Format: numeric value only, no unit, no commentary.

For orientation, consider the following solved cases.
{"compound": "CC(=O)O[C@H]1C[C@@H](O)C(C)(C)C2C[C@@H](OC(C)=O)[C@]3(C)C(CC[C@@]4(C)[C@H](c5ccoc5)OC(=O)C5OC543)[C@]21C (stereo not given in full)", "numeric.result": 1}
{"compound": "COc1ccc(-c2cc(=O)c3c(OC)cccc3o2)cc1", "numeric.result": 1.08}
{"compound": "CCC1C2CC3C4N(C)c5ccccc5C45CC(C2C5OC(C)=O)N3C1OC(C)=O (stereo not given)", "numeric.result": 1.02}
{"compound": "COC(=O)C[C@H]1C(C)(C)C(=O)[C@@H]2CC3=C4CC(OC)O[C@@H](c5ccoc5)[C@]4(C)CCC3[C@@]1(C)C2=O (stereo not given in full)", "numeric.result": 1.04}
{"compound": "C=CCCCCCCCCCCCC(O)CC(O)CO (stereo not given)", "numeric.result": 0.834}
{"compound": "CC(=O)N(O)CCCCCNC(=O)CCC(=O)N(O)CCCCCNC(=O)CCC(=O)N(O)CCCCCN", "numeric.result": 0.987}
{"compound": "CCn1cc(C(=O)O)c(=O)c2cc(F)c(N3CCNCC3)cc21", "numeric.result": 0.998}
{"compound": "O=C(O)/C=C(\\CC(=O)O)C(=O)O", "numeric.result": 1.02}

Sure, the documented normalized growth for COC(=O)C1=C(C)NC(C)=C(C(=O)OC)C1c1ccccc1[N+](=O)[O-] is 0.845

Sure, the documented normalized growth for CCC/C=C/C=C/[C@@H]1C[C@@H](O)[C@@H](O)C(=O)[C@H]1C=O is 0.973

----------
experiment.summary: chemical genetic growth profiling, strain panel (AID 1159580)
condition.context: S. cerevisiae deletion strains, growth OD, locus YER002W, strain NOP16, active compounds read low
Screen size: about 5,500 compounds; about 2,000 (36%) were called active. Another 18% or so got no clear call; they are omitted. Some of the results follow.
measurement.name: normalized growth
Format: numeric value only, no unit, no commentary.

For orientation, consider the following solved cases.
{"compound": "NCCc1c[nH]c2ccc(O)cc12", "normalized growth": 1.01}
{"compound": "CN1CCN(C2Cc3ccccc3Sc3ccc(Cl)cc32)CC1 (configuration not stated)", "normalized growth": 1.04}
{"compound": "CSc1ccc2c(c1)C(N1CCN(C)CC1)Cc1ccccc1S2 (configuration not stated)", "normalized growth": 1.07}
{"compound": "NCCc1ccc(O)cc1", "normalized growth": 0.994}

Sure, the documented normalized growth for CCN(CC)CCNC(=O)c1ccc(NC(C)=O)cc1 is 0.969

Sure, the documented normalized growth for Nc1nc(N)c2nc(-c3ccccc3)c(N)nc2n1 is 1

Sure, the documented normalized growth for CCCCCC[C@@H]([C@@H](C)O)n1cnc2c(N)ncnc21 is 1.01

----------
experiment.summary: chemical genetic growth profiling, strain panel (AID 1159580);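 also: tested at 20 µM; growth read once vehicle control cultures reached saturation at 30 °C; 1 = growth at the plate median or of vehicle wells; lower values mean less growth of the strain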
condition.context: S. cerevisiae deletion strains, growth OD, locus YOL147C, strain pex11
Out of some 5,500 compounds screened, about 2,000 (36%) were called active. About 18% were inconclusive and are not listed. Cut-off read from the data, not from the text of the source: active = normalized growth mostly below about 0.91 (no sharp cut-off); inconclusive = no clear call, values can overlap the other calls; inactive = mostly above about 0.92. This is one part of the list.
Respond using exactly one of the listed classes: label 1 for active, label 0 for inactive

Reference set (3 entries):
{"compound": "CC(=O)Nc1ccc(OC(=O)c2ccccc2O)cc1", "class": "label 0"}
{"compound": "CC(=O)Nc1ccc(O)cc1", "class": "label 0"}
{"compound": "O=C1CCc2cc(OCCCCc3nnnn3C3CCCCC3)ccc2N1", "class": "label 0"}

*Q* Could you check what this test reported for Nc1ccc(C(=O)O)c(O)c1 (tested in a mixture with another compound) ?
*A* label 0

*Q* Could you check what this test reported for Nc1ccc(C(=O)Oc2ccccc2)c(O)c1 ?
*A* label 1

*Q* Could you check what this test reported for O=C1c2c(O)ccc(O)c2C(=O)c2c(NCCNCCO)ccc(NCCNCCO)c21 ?
*A* label 0

*Q* Could you check what this test reported for CC(=O)Nc1cccc(O)c1 ?
*A* label 0

----------
# maps each entry to its normalized growth
experiment.summary: chemical genetic growth profiling, strain panel (AID 1159580);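 also: tested at 20 µM; growth read once vehicle control cultures reached saturation at 30 °C; 1 = growth at the plate median or of vehicle wells; lower values mean less growth of the strain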
condition.context: S. cerevisiae deletion strains, growth OD, locus YLR027C, strain aat2, active compounds read low
Out of some 5,500 compounds screened, about 2,000 (36%) were called active. Roughly 18% stayed inconclusive and do not appear here. This is one part of the list.
Format: numeric value only, no unit, no commentary.

For orientation, consider the following solved cases.
{"compound": "CN(C)CCC=C1c2ccccc2C=Cc2ccccc21", "numeric.result": 0.98}
{"compound": "COc1ccc(-c2cc(=O)c3c(OC)c(OC)c(OC)c(OC)c3o2)cc1", "numeric.result": 0.892}
{"compound": "C=CCc1ccccc1OCC(O)CNC(C)C (configuration not stated)", "numeric.result": 0.99}
{"compound": "CN(C)CCC=C1c2ccccc2CCc2ccccc21", "numeric.result": 0.997}
{"compound": "COC(=O)C1=C(C)NC(C)=C(C(=O)OCCN(C)Cc2ccccc2)C1c1cccc([N+](=O)[O-])c1 (configuration not stated)", "numeric.result": 0.988}
{"compound": "CN1CCN2c3ccccc3Cc3ccccc3C2C1 (configuration not stated)", "numeric.result": 1}
{"compound": "C[n+]1cc2c3c(ccc2c2ccc4cc5c(cc4c21)OCO5)OCO3", "numeric.result": 0.379}
{"compound": "O=C1CC[C@]23C=CC(=O)NCCCCNCCCNC(=O)/C=C/c4ccc(c2c4)O[C@@H]3C1", "numeric.result": 1.01}
{"compound": "CC[C@]12C=CCN3CC[C@@]4(c5ccc(OC)cc5N(C)C4[C@@](O)(C(=O)OC)[C@@H]1OC(C)=O)[C@@H]32 (some centres not stated)", "numeric.result": 1.01}
{"compound": "CC(=O)Nc1ccc(OC(=O)c2ccccc2O)cc1", "numeric.result": 0.992}

Next item in the queue.
Sure, the documented normalized growth for C[N+]1(CCCCC[N+]2(C)CCCC2)CCCC1 is 0.992

----------
experiment.summary: chemical genetic growth profiling, strain panel (AID 1159580);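 also: tested at 20 µM; growth read once vehicle control cultures reached saturation at 30 °C; 1 = growth at the plate median or of vehicle wells; lower values mean less growth of the strain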
condition.context: S. cerevisiae deletion strains, growth OD, locus YKL009W, strain mrt4, active compounds read low
Screen size: about 5,500 compounds; about 2,000 (36%) were called active. About 18% were inconclusive and are not listed. This is one part of the list.
# strict inequality: normalized growth < 1 yields true, everything else yields false

Reference set (2 entries):
{"chemical.smiles": "COc1ccc(-c2cc(=O)c3ccccc3o2)cc1OC", "class": "true"}
{"chemical.smiles": "COc1c(O)cccc1O", "class": "false"}

*Q* Please determine if Cc1cc(=O)c2c(o1)-c1c(cc(O)c(O)c1C(=O)O)OC2 is below 1 in terms of normalized growth.
*A* false

*Q* Please determine if COc1ccc(-c2cc(=O)c3c(OC)cccc3o2)cc1 is below 1 in terms of normalized growth.
*A* true

*Q* Please determine if COc1cc2c3cc1Oc1cc(ccc1O)C[C@@H]1c4c(cc(OC)c(O)c4Oc4ccc(cc4)C[C@@H]3N(C)CC2)CC[N+]1(C)C is below 1 in terms of normalized growth.
*A* false

*Q* Please determine if COc1ccc(-c2cc(=O)c3ccccc3o2)cc1 is below 1 in terms of normalized growth.
*A* true

*Q* Please determine if COc1ccc(C(=O)/C=C/c2ccccc2)cc1 is below 1 in terms of normalized growth.
*A* true

*Q* Please determine if CCCCCCCCCCCCCCCC[n+]1ccccc1 is below 1 in terms of normalized growth.
*A* true

*Q* Please determine if CC(=O)Oc1c(-c2ccccc2)oc2c(CC=C(C)C)c3c(c(OC(C)=O)c2c1=O)C=CC(C)(C)O3 is below 1 in terms of normalized growth.
*A* false

*Q* Please determine if O=C(/C=C/c1ccccc1)c1ccc(O)cc1 is below 1 in terms of normalized growth.
*A* true

*Q* Please determine if CC1=CCc2c(cc3oc(C)cc(=O)c3c2O)OC1 is below 1 in terms of normalized growth.
*A* true

*Q* Please determine if COc1ccc2c(=O)cc(-c3ccccc3OC)oc2c1 is below 1 in terms of normalized growth.
*A* true

*Q* Please determine if CC(=O)Oc1cc(-c2coc3cc(OC(C)=O)c(OC(C)=O)c(OC(C)=O)c3c2=O)cc(OC(C)=O)c1OC(C)=O is below 1 in terms of normalized growth.
*A* false
